# System: CAKI-1 renal
# Test summary: NCI-60 one-dose screen, 48 h (100 = growth as untreated, 0 = no growth, -100 = all killed)
# Test context: 10 µM unless noted
# Experimental: Growth inhibition of the CAKI-1 human tumor cell line is measured as a screen for anti-cancer activity. Cells are grown in 96 well plates and exposed to the test compound for 48 hours. Compounds are tested at a single concentration, which is 10^-5 M for most compounds. The reported endpoint is percent growth (GI% or GIPRCNT), where numbers from 0 - 100% represent growth inhibition, and numbers from -100% - 0 represent cell death. For example, a value of 40 represents 60% growth inhibition. […]
This is part of a sample that, as a whole, favours compounds with a hit. Of some 83,000 tested, about 20% had one in any assay.
Property name: growth (%)
Respond with the bare value in %.

O=C1NC(=O)C(Cc2ccccc2)(Cc2ccccc2)C(=O)N1	114
CC[C@]12C=CCN3CC[C@@]4(c5ccc(OC)cc5N(C)[C@H]4[C@@](O)(C(=O)OC)[C@@H]1OC(=O)CCCN1CCN(CCCC(=O)O[C@@H]4[C@]5(CC)C=CCN6CC[C@@]7(c8ccc(OC)cc8N(C)[C@H]7[C@@]4(O)C(=O)OC)[C@@H]65)CC1)[C@@H]32	-97
COc1c(O)c2c3c(c1OC)-c1ccccc1CC3N(C)CC2 (stereo unspecified)	94.3
S=P(N1CCCCCC1)(N1CC1)N1CC1	96.3
CC1CC=CCC12C(=O)NC(=S)NC2=O (stereo unspecified)	96.6
Cc1ccccc1O	96.2
CCCCCN(CCCCC)CC(O)c1ccc(C)c(Cl)c1 (stereo unspecified)	98.2
Clc1ccc(SSC(Cl)(Cl)Cl)cc1	119

**Query** Return growth measured with CAKI-1 renal given this compound: CC12CCC(=O)C=C1C(O)CC1C2CCC2(C)C(O)CCC12 (stereo unspecified)
**Result** 102

**Query** Recorded growth for CNC(=O)Oc1ccccc1-c1ccccc1 with CAKI-1 renal, please?
**Result** 95.5

**Query** Test system CAKI-1 renal; read-out growth; what value for COc1cc(/C=C\c2cc(OC)c(OC)c(OC)c2)cc(N/C=C\C(=O)c2ccc(OC(F)(F)F)cc2)c1OC ?
**Result** 45.5

Hey, just so you know, these numbers are from PubChem BioAssay (NCI).
